Entry source: ChEMBL document CHEMBL4513146

test system: Klebsiella pneumoniae; conditions: Concentration 32 ug.mL-1;; ASSAY_TEST Inhibition of Bacterial Growth; detection method Absorption (OD600); MEDIA CAMHB; plate type 384well; NBS; CORNING #3640; time 18 hr
Description: Antibacterial activity against Klebsiella pneumoniae MDR ATCC 70063 (CO-ADD:GN_003); MIC in CAMBH media using NBS plates, by OD(600)
Potency and affinity values are given separately.
Measured Inhibition by item
VALUE TYPE: Inhibition (%)

C=Cc1ccc(CN(c2ccc3c(c2)OCO3)S(=O)(=O)c2ccc3nncn3c2)cc1 : 11.26
Cc1cccc(Sc2nc3ccccc3n3c(=O)n(CC(=O)Nc4c(C)cc(C)cc4C)nc23)c1 : 10.9
CSc1cccc(NC(=O)Cn2c(=O)c3nnc(C)n3c3ccccc32)c1 : 4.53
Cc1ccc(NC(=O)CSc2nc3ccccc3n3c(C)nnc23)cc1C : -6.18
CCOc1ccc(-c2nc(CSc3nc4ccccc4n4c(C)nnc34)c(C)o2)cc1 : 11.43
CCCCc1ccc(NC(=O)Cn2nc3c(Sc4ccccc4CC)nccn3c2=O)cc1 : -8.8
Cc1ccc(NC(=O)Cn2nc3c(Oc4ccccc4C)nccn3c2=O)cc1F : 11.18
CCC(C)NC(=O)Cn1nc2n(Cc3cccs3)c(=O)c3sccc3n2c1=O (stereo not given) : 6.55
Cc1ccc(NC(=O)Cn2nc3ccc(-c4ccc(Cl)cc4)nn3c2=O)cc1F : 2.59
O=C(Cn1nc2c(Oc3ccccc3)nc3ccccc3n2c1=O)Nc1ccc2c(c1)OCO2 : 4.55
O=C(Cn1nc2ccc(-c3ccccc3)nn2c1=O)Nc1ccc(Cl)c(C(F)(F)F)c1 : 4.19
Cc1nnc2ccc(S(=O)(=O)N(Cc3ccccc3)c3ccc(F)cc3)cn12 : 4.54
COc1cccc(-n2ccn3c(SCC(=O)Nc4ccc(OC)c(OC)c4)nnc3c2=O)c1 : 16.13
CCCCOc1ccc(-c2cc3c4nnc(SCC(=O)Nc5cc(F)ccc5C)n4ccn3n2)cc1 : -4.04
Cc1cccc(Sc2nccn3c(=O)n(CC(=O)Nc4ccc(Br)cc4C)nc23)c1 : 8.64
Cc1cc2nn(CC(=O)NCc3ccc4c(c3)OCO4)c(=O)n2c(Nc2ccccc2C)n1 : 10.7
CCc1ccccc1Sc1nccn2c(=O)n(CC(=O)Nc3ccc(Br)cc3)nc12 : 22.46
O=C(CCc1nnc2c3cc(-c4ccc(F)cc4)nn3ccn12)N1CCC(Cc2ccccc2)CC1 : 4.22
O=C(CCc1nnc2c(N3CCCCC3)nc3ccccc3n12)NCc1ccc(Cl)cc1 : 14.26
Cc1ccc(Sc2nccn3c(=O)n(CC(=O)N4CCN(c5ccc(F)cc5)CC4)nc23)c(C)c1 : -6.63
